Assignment: determine reported %Inh for the given compounds.
- System: AURKA
- conditionSet: concentration: 1 μM, replicates: in singlicate; n = 1;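 note: KINOMEscan kinase panel screen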
Numbers only, in %.

Examples with answers:
compound=CN1C(=O)C(Nc2cc(Cl)c(O)c(Cl)c2)=C(c2ccc(Cl)cc2)C1=O testvalue=0
compound=Cc1c(Cn2c(C)nn3c(=O)cc(N4CCO[C@H](C)C4)nc23)cccc1C(F)(F)F testvalue=0
compound=Cc1nc(N(C)[C@H]2CN(C(=O)CC#N)CC[C@H]2C)c2cc[nH]c2n1 testvalue=0

Report %Inh for each item below.
1. Cc1nn2c(=O)cc(N3CCOCC3)nc2n1Cc1cccc(Cl)c1Cl
2. Nc1ncnc2c1ncn2-c1cccc(F)c1
3. COc1cc2nccc(Nc3ccc(OCc4ccc(NC(C)=O)cc4)cc3)c2cc1OC.Cl
4. CCn1c(-c2ccoc2)nc2cnccc21
5. COc1cc2ncn(-c3cc(OCCCc4ccccc4)c(C(N)=O)s3)c2cc1OC

A:
1: 0; 2: 0; 3: 0; 4: 16; 5: 0

* * *

- Test system: DAPK1
- conditionSet: concentration: 1 μM, replicates: in singlicate; n = 1
measurementType: %Inh
Form field: result (number plus unit)

The examples below pair each entry with its known result.
itemsmiles=COc1ccc(-c2cc3c(C)nc(N)nc3n([C@H]3CC[C@H](OCCO)CC3)c2=O)cn1 testvalue=11%
itemsmiles=Nc1nc(-c2ccccc2F)c(-c2ccnc3ccccc23)s1 testvalue=0%
itemsmiles=Nc1nc(N)c2nc(-c3ccccc3)[nH]c2n1 testvalue=12%
itemsmiles=O=C(Nc1n[nH]c2cc(-c3ccccc3F)ccc12)C1CC1 testvalue=0%
itemsmiles=Cn1c(=O)c(F)c(Nc2ccc(I)cc2F)c2c(=O)n(OC[C@H](O)CO)cnc21 testvalue=0%

For every listed record, write down its %Inh.
1. CCn1c(-c2ccoc2)nc2cnccc21
2. Cc1ccc(Oc2ccc(Nc3ncnc4cc[nH]c34)cc2C)cn1

A:
0%
0%

* * *

- System: YANK2
- Construct: gene STK32B
- conditionSet: concentration: 1 μM, replicates: in singlicate; n = 1
measurementType: %Inh (%)
Numbers only, in %.

Some solved entries appear below for comparison.
compound=Cc1cccc(-c2cc(-c3c[nH]nc3-c3ccccn3)ccn2)c1 measurementtype=%Inh testvalue=0
compound="Cc1nnc(-c2ccc3ncn(-c4ccc(S(C)=O)cc4)c3c2)o1 (stereo not drawn)" measurementtype=%Inh testvalue=0
compound=COc1cc2ncn(-c3cc(OCc4ccncc4Br)c(C(N)=O)s3)c2cc1OC measurementtype=%Inh testvalue=0

Fill in %Inh for each of the 3 compounds listed.
1. CCC(=O)c1c(-c2ccccc2)c2cc(Cl)ccc2c(=O)n1Cc1cc(S(C)(=O)=O)n(CC(N)=O)n1
2. O=C(NCc1cccs1)c1cc(C(=O)c2c(Cl)cccc2Cl)c[nH]1
3. COc1cc(Nc2nccc(N3CCC(NC(=O)C(C)c4ccc(Cl)cc4)C3)n2)cc(OC)c1OC (stereo not drawn)

A:
[0, 0, 0]

* * *

Would you kindly list %Inh for each of these compounds?
- Tested on: JAK1(JH2domain-pseudokinase)
- conditionSet: concentration: 1 μM, replicates: in singlicate; n = 1
Numbers only, in %.

compound=Cl.NS(=O)(=O)c1cccc(Nc2cc(-c3ccc(F)cc3)n[nH]2)c1 testvalue=23
compound=CCCC(=O)Nc1n[nH]c2ncc(-c3cccc4ccccc34)cc12 testvalue=0
compound=CCC(=O)c1c(-c2ccccc2)c2cc(Cl)ccc2c(=O)n1Cc1cc(S(C)(=O)=O)n(CCC(C)(C)O)n1 testvalue=0
compound=Cc1cccc(-c2nc(Nc3ccc4c(cnn4C)c3)c3ccccc3n2)n1 testvalue=16
compound=Cn1c(=O)c(F)c(Nc2ccc(I)cc2F)c2c(=O)n(OC[C@H](O)CO)cnc21 testvalue=14
compound=Nc1n[nH]c2nnc(-c3ccccc3)c(-c3ccccc3)c12 testvalue=0
compound=Cc1nc(N(C)[C@H]2CN(C(=O)CC#N)CC[C@H]2C)c2cc[nH]c2n1 testvalue=0
compound="CCS(=O)c1ccc(-c2coc3ccc(-c4nnc(C)o4)cc23)cc1 (stereo not shown)" testvalue=20

Please give %Inh for each item listed below.
1. CCC(=O)c1c(-c2ccccc2)c2cc(Cl)ccc2c(=O)n1Cc1cc(S(C)(=O)=O)n(CC(F)F)n1
2. O=C(NCCNc1ccnc(Nc2ccc(F)cc2)n1)Nc1ccc2c(c1)OCO2

A:
1: 0; 2: 3
